Where these numbers come from: ChEMBL document CHEMBL1201862

tested on: U-251; test: NCI tumour cell line growth inhibition, 48 h
Where a name gives a salt, the structure may show the parent alone. The source made the active and inactive calls. Cut-off read from the data, not from the text of the source: active = GI50 up to about 1.1 µM and inactive = higher.

>  <compound>
O=C1C2CC=CCC2C(=O)N1n1c(Cc2ccccc2)n[nH]c1=O (configuration not stated)

>  <GI50>
> 100 µM (inactive)

$$$$
>  <compound>
CCOC(=O)c1ccc(/N=c2\oc3ccc(OC)cc3cc2-c2nc3ccccc3[nH]2)cc1

>  <GI50>
31.4 µM (inactive)

$$$$
>  <compound>
O=C(C=P(c1ccccc1)(c1ccccc1)c1ccccc1)c1ccc(-c2ccc(F)cc2F)cc1

>  <GI50>
3.41 µM (inactive)

$$$$
>  <compound>
CO/C=C/c1cc2c(cc1C(OC)OC)OCO2

>  <GI50>
53.3 µM (inactive)

$$$$
>  <compound>
CC1=C(C(=O)Nc2cccc(C(F)(F)F)c2)C(c2ccccc2F)C(C(=O)Nc2cccc(C(F)(F)F)c2)=C(C)N1

>  <GI50>
8.69 µM (inactive)

$$$$
>  <compound>
COc1ccc2nc3cc(Cl)ccc3c(NCCCN(Cc3cc(OC)c(OC)c(OC)c3)Cc3cc(OC)c(OC)c(OC)c3)c2c1

>  <GI50>
4.32 µM (inactive)

$$$$
>  <compound>
CN(/N=C(\C(=O)O)c1ccccc1)C1=NCCCN1

>  <GI50>
> 100 µM (inactive)

$$$$
>  <compound>
CN(CCNC(=O)c1n[nH]c2c1ccc1ccccc12)CCNC(=O)c1n[nH]c2c1ccc1ccccc12

>  <GI50>
1.93 µM (inactive)

$$$$
>  <compound>
C/C(=N\c1c2ccccc2nc2ccccc12)N(C)C

>  <GI50>
23 µM (inactive)

$$$$
>  <compound>
Nc1ccc(C(=O)NN2C(=O)C(Cl)C2c2cccc([N+](=O)[O-])c2)cc1 (configuration not stated)

>  <GI50>
13.9 µM (inactive)

$$$$
>  <compound>
N=NCC(=O)OC(COCc1ccccc1)COCc1ccccc1

>  <GI50>
> 100 µM (inactive)

$$$$
>  <compound>
O=C(Nc1ccc(C(F)(F)F)cc1)NC(F)(F)F

>  <GI50>
> 100 µM (inactive)

$$$$
>  <compound>
Nc1ccccc1/N=N/c1c(S(=O)(=O)O)cc2cc(S(=O)(=O)O)cc(O)c2c1O

>  <GI50>
> 100 µM (inactive)

$$$$
>  <compound>
C=CNC(=S)n1nc(-c2ccccc2NC(=O)C(F)(F)F)c(=O)n(C(=S)NC=C)c1=S

>  <GI50>
34.9 µM (inactive)

$$$$
>  <compound>
O=S(=O)(O)c1cc(Cl)c(O)c2ncc(Cl)cc12

>  <GI50>
> 100 µM (inactive)

$$$$
>  <compound>
CCCCCCCCCCCCCCC(C(=O)[O-])[n+]1ccccc1 (configuration not stated)

>  <GI50>
28.6 µM (inactive)

$$$$
>  <compound>
COc1c(OC)c(OC)c2c(=O)cc(-c3ccc(OC(C)C)cc3)oc2c1OC

>  <GI50>
> 37.2 µM (inactive)

$$$$
>  <compound>
CN(C)CCC=C1c2ccccc2C=Cc2ccccc21 [CYCLOBENZAPRINE HYDROCHLORIDE]

>  <GI50>
16.3 µM (inactive)

$$$$
>  <compound>
N=C(N)NS(=O)(=O)c1ccc(Nc2c3ccccc3nc3c(C(=O)Nc4ccc(S(N)(=O)=O)cc4)ccc(Cl)c23)cc1

>  <GI50>
> 100 µM (inactive)

$$$$
>  <compound>
N#Cc1c(N2CCCC2)nsc1NCc1ccccc1

>  <GI50>
> 100 µM (inactive)

$$$$
>  <compound>
Cc1cc(C)n(CN(CCCCO)Cn2nc(C)cc2C)n1

>  <GI50>
22.4 µM (inactive)

$$$$
>  <compound>
CCOC(=O)c1cn2c(n1)sc1c(Cl)c(Cl)ccc12

>  <GI50>
11 µM (inactive)

$$$$
>  <compound>
CC1=C(C(=O)Nc2ccc([N+](=O)[O-])cc2)C(c2ccc(N(C)C)cc2)C(C(=O)Nc2ccc([N+](=O)[O-])cc2)=C(C)N1

>  <GI50>
21.9 µM (inactive)

$$$$
>  <compound>
CN1CC(=O)N(C)c2ncn(Cc3ccccc3)c2C1=O

>  <GI50>
> 100 µM (inactive)

$$$$
>  <compound>
Cc1ccc(S(=O)(=O)NC(=O)NC(Cc2c[nH]c3ccccc23)C(=O)O)cc1 (configuration not stated)

>  <GI50>
> 100 µM (inactive)

$$$$
>  <compound>
O=C(NNCc1ccc(Cl)cc1)Nc1cccc2ccccc12

>  <GI50>
58.5 µM (inactive)

$$$$
>  <compound>
N#CC12C(=O)N3C(=NC(c4ccccc4)NC3c3ccccc3)C1(C#N)C(c1ccccc1)NC1=C2CCCC1 (configuration not stated)

>  <GI50>
> 100 µM (inactive)

$$$$
>  <compound>
Oc1ncnc2c1CCCN2

>  <GI50>
> 100 µM (inactive)

$$$$
>  <compound>
CN(C)c1ccccc1CC(c1c[nH]c2ccccc12)c1c[nH]c2ccccc12

>  <GI50>
12.1 µM (inactive)

$$$$
>  <compound>
O=C(CC(=O)N1N=C(n2ccc3ccccc32)CC1c1ccccc1)Nc1ccccc1Cl (configuration not stated)

>  <GI50>
> 100 µM (inactive)

$$$$
>  <compound>
C/C(=N/NC(=S)N(C)CCc1ccccn1)c1cnccn1

>  <GI50>
< 0.01 µM (active)

$$$$
>  <compound>
OCc1cc2ccncc2c2c1[nH]c1ccccc12

>  <GI50>
6.25 µM (inactive)

$$$$

----------
tested on: SF-268; assay: NCI tumour cell line growth inhibition, 48 h
Calls of active or inactive are those of the source. Rule as the data show it: active = GI50 up to about 1.1 µM and inactive = higher.
Labels: yes = active, no = inactive

>  <compound>
COC(=O)[C@@H]1[C@H](O)[C@H](C)[C@H](O)[C@H](C)/C=C\C=C(\C)C(=O)Nc2c(C)c(OC(C)=O)c3c(c2O)C(=O)C(C)=C2OCOC(=C23)/C(C)=C/[C@@H](O)[C@H](O)[C@@H](C)[C@H]1OC(C)=O

>  <assigned.class>
no

$$$$
>  <compound>
O=C1c2cccnc2-c2nccc3c2c1nc1ccc(Br)cc13

>  <assigned.class>
yes

$$$$
>  <compound>
C(=N\Nc1nnc(-c2nnc(N/N=C/c3ccccc3)o2)o1)/c1ccccc1

>  <assigned.class>
no

$$$$
>  <compound>
CC(C)c1cc(C(C)C)c(S(=O)(=O)N=[N+]=[N-])c(C(C)C)c1

>  <assigned.class>
no

$$$$
>  <compound>
N#C/C(=C/NC(=S)c1ccncc1)C(N)=O

>  <assigned.class>
no

$$$$
>  <compound>
CC(C)(CCC(C)(C)N1OC1c1ccccc1)N1OC1c1ccccc1 (centres undefined)

>  <assigned.class>
no

$$$$
>  <compound>
Nc1ncnc2oc(-c3cccs3)nc12

>  <assigned.class>
no

$$$$
>  <compound>
CC(=O)OCC1OC(NC(=S)Nn2c(-c3ccccc3)nc3ccccc3c2=O)C(OC(C)=O)C(OC(C)=O)C1OC(C)=O (centres undefined)

>  <assigned.class>
no

$$$$
>  <compound>
O=C(O)CCSC(=S)Nc1ccc([N+](=O)[O-])cc1

>  <assigned.class>
no

$$$$

----------
tested on: SW-620; test: NCI tumour cell line growth inhibition, 48 h
The source made the active and inactive calls. Rule as the data show it: active = GI50 up to about 1.1 µM and inactive = higher.
Outcome codes: TRUE for active, FALSE for inactive

>  <molecule>
CCN1C(=O)C(=C/C=C/C=C2/N(C)c3ccccc3C2(C)C)C(=O)N(CC)C1=S

>  <experimental.target>
SW-620

>  <assigned.class>
FALSE

$$$$
>  <molecule>
Cc1cnc2sn(-c3ccc(Oc4ccccc4)cc3)c(=O)c2c1

>  <experimental.target>
SW-620

>  <assigned.class>
FALSE

$$$$
>  <molecule>
CCC1C(C)c2c([nH]c3ccccc23)C2C(=O)N(c3ccccc3)C(=O)C21 (stereo not given)

>  <experimental.target>
SW-620

>  <assigned.class>
FALSE

$$$$
>  <molecule>
c1ccc(CN2CCCN3CCN(CCCN(Cc4ccccc4)CC3)CC2)cc1

>  <experimental.target>
SW-620

>  <assigned.class>
FALSE

$$$$
>  <molecule>
O=C(NCCCCNc1cccccc1=O)OCc1ccccc1

>  <experimental.target>
SW-620

>  <assigned.class>
FALSE

$$$$
>  <molecule>
CNc1cc2c(c3ccccc13)C(CCl)CN2C(=O)c1cc2cc(OC)c(OC)c(OC)c2[nH]1 (stereo not given)

>  <experimental.target>
SW-620

>  <assigned.class>
TRUE

$$$$
>  <molecule>
COc1cc2c(cc1OC)C1C(O)C(OC)C=C3CC[N+](C)(C2)C31 (stereo not given)

>  <experimental.target>
SW-620

>  <assigned.class>
FALSE

$$$$
>  <molecule>
CCCCN/N=N/c1cn(C2OC(CO)C(O)C2O)c(=O)[nH]c1=O (stereo not given)

>  <experimental.target>
SW-620

>  <assigned.class>
FALSE

$$$$
>  <molecule>
O=c1cc(CSc2c(-c3ccccc3)c(=O)n(-c3ccccc3)c(=S)n2-c2ccccc2)[nH]c(=O)[nH]1

>  <experimental.target>
SW-620

>  <assigned.class>
FALSE

$$$$
>  <molecule>
CC1OC2OC3C(OCC(O)C3O)OC(=O)[C@]34CCC(C)(C)CC3C3=CCC5[C@@]6(C)C[C@H](O)[C@H](OC7OC(CO)C(O)C(O)C7OC7OCC(OC(=O)CC(C)(O)CC(=O)OC1C(OC1OC(CO)C(O)C(O)C1O)C2O)C(O)C7O)[C@@](C)(CO)C6CC[C@@]5(C)[C@]3(C)CC4 (stereo not given in full)

>  <experimental.target>
SW-620

>  <assigned.class>
FALSE

$$$$
>  <molecule>
CC(C)c1cc(C(C)C)c(S(=O)(=O)N=[N+]=[N-])c(C(C)C)c1

>  <experimental.target>
SW-620

>  <assigned.class>
FALSE

$$$$
>  <molecule>
Cc1cc(C)n(CN(CCCCO)Cn2nc(C)cc2C)n1

>  <experimental.target>
SW-620

>  <assigned.class>
FALSE

$$$$
>  <molecule>
CC1=NN(c2ccccc2)C(=O)C1=C1SCCCS1

>  <experimental.target>
SW-620

>  <assigned.class>
FALSE

$$$$
>  <molecule>
CCOC(=O)C1C(c2ccc(OC)cc2)c2c(nn(-c3ccccc3)c2O)CC1(O)OCC (stereo not given)

>  <experimental.target>
SW-620

>  <assigned.class>
FALSE

$$$$
>  <molecule>
COC(=O)C1C(O)CC(c2ccccn2)N(Cc2ccccc2)C1c1ccccn1 (stereo not given)

>  <experimental.target>
SW-620

>  <assigned.class>
FALSE

$$$$
>  <molecule>
Nc1ccc(S2(c3ccc(N)cc3)C=C(c3ccccc3)C(c3ccccc3)=C2)cc1

>  <experimental.target>
SW-620

>  <assigned.class>
FALSE

$$$$
>  <molecule>
OCC1OC(n2cnc3c(Cl)nc(Nc4ccc(Cl)c(Cl)c4)nc32)CC1O (stereo not given)

>  <experimental.target>
SW-620

>  <assigned.class>
FALSE

$$$$
>  <molecule>
COC(=O)C1=C(C(=O)OC)c2cc(OC)ccc2C(C(=S)N(C)C)S1 (stereo not given)

>  <experimental.target>
SW-620

>  <assigned.class>
FALSE

$$$$
>  <molecule>
Cc1c([N+](=O)[O-])oc2ccc3ccccc3c12

>  <experimental.target>
SW-620

>  <assigned.class>
FALSE

$$$$
>  <molecule>
Oc1ncnc2c1CCCN2

>  <experimental.target>
SW-620

>  <assigned.class>
FALSE

$$$$
